This collection of values is drawn from paper PMC8333062.

For each record, write down the corresponding PAMPA-BBB.
details: pH 7.4

Q: What does the record list as PAMPA-BBB for `CC(C)NCCCn1c(Sc2cc3c(cc2-c2ccccc2)OCO3)nc2c(N)ncnc21` ?
Result: 9.9±0.5 10-6 cms-1

Q: What does the record list as PAMPA-BBB for `CC(C)NCCCn1c(Sc2cc3c(cc2-c2ccc(N(C)C)cc2)OCO3)nc2c(N)ncnc21` ?
Result: 9.2±0.3 10-6 cms-1

Q: What does the record list as PAMPA-BBB for `CC(C)N(CCO)CCCn1c(Cc2cc3c(cc2I)OCO3)nc2c(N)nc(F)nc21` ?
Result: 1.1±0.1 10-6 cms-1

Q: What does the record list as PAMPA-BBB for `CCN(C)CCCn1c(Cc2cc3c(cc2I)OCO3)nc2c(N)nc(F)nc21` ?
Result: 7.5±0.1 10-6 cms-1

Q: What does the record list as PAMPA-BBB for `CC(C)CNCCn1c(Sc2cc3c(cc2I)CCO3)nc2c(N)ncnc21` ?
Result: 9.3±0.2 10-6 cms-1

Q: What does the record list as PAMPA-BBB for `Nc1nc(F)nc2c1nc(Cc1cc3c(cc1I)OCO3)n2CCCN(CCO)C1CCCCC1` ?
Result: 8.5±0.1 10-6 cms-1

Q: What does the record list as PAMPA-BBB for `C=CCN(C)CCCn1c(Cc2cc3c(cc2I)OCO3)nc2c(N)nc(F)nc21` ?
Result: 11.3±1.9 10-6 cms-1

Q: What does the record list as PAMPA-BBB for `CC(C)NCCCn1c(Sc2cc3c(cc2-c2ccc(C(C)(C)C)cc2)OCO3)nc2c(N)ncnc21` ?
Result: 12.5±0.6 10-6 cms-1

Q: What does the record list as PAMPA-BBB for `Nc1nc(F)nc2c1nc(Cc1cc3c(cc1I)OCO3)n2CCCN1CCN(CCO)CC1` ?
Result: 4.7±0.5 10-6 cms-1

Q: What does the record list as PAMPA-BBB for `CCN(CCCn1c(Cc2cc3c(cc2I)OCO3)nc2c(N)nc(F)nc21)C(C)C` ?
Result: 7.5±0.2 10-6 cms-1

Q: What does the record list as PAMPA-BBB for `CC(C)CNCCn1c(Sc2cc3c(cc2I)OCO3)nc2c(N)ncnc21` ?
Result: 8.9±0.5 10-6 cms-1

Q: What does the record list as PAMPA-BBB for `C=CCc1cc2c(cc1Sc1nc3c(N)ncnc3n1CCCNC(C)C)OCO2` ?
Result: 6.7±0.7 10-6 cms-1

Q: What does the record list as PAMPA-BBB for `CC(C)N(C)CCCn1c(Cc2cc3c(cc2I)OCO3)nc2c(N)nc(F)nc21` ?
Result: 5.8±1.3 10-6 cms-1
